Hello, the source for this data is PubChem BioAssay AID2642, in case you need it.

Biological target: Potassium voltage-gated channel subfamily KQT member 1 (Homo sapiens) (UniProt P51787)
Sequence (P51787 whole entry, looked up): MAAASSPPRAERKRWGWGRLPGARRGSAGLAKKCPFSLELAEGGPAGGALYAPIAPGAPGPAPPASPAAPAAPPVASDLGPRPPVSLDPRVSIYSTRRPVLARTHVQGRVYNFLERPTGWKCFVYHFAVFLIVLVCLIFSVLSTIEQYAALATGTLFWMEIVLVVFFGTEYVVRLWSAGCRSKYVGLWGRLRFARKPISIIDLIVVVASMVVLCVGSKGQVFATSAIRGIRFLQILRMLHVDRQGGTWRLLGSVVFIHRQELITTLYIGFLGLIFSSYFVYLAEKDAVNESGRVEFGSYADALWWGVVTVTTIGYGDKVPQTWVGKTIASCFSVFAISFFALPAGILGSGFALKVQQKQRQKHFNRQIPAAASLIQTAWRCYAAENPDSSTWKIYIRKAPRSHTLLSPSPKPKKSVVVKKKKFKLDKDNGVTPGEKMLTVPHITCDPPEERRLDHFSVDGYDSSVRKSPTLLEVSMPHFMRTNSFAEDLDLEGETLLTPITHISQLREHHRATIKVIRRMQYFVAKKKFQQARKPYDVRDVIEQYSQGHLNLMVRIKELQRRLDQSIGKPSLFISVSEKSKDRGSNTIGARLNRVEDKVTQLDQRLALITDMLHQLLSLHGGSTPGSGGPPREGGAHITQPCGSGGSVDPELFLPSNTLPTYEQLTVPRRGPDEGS
Experiment: inhibitors of human KCNQ1 channel, primary screen, cell-based, thallium flux, high-throughput (AID 2642);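 note: channel opened by potassium depolarization with thallium stimulus after 20 min compound exposure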
Details: CHO-K1 KCNQ1, FluxOR thallium flux fluorescence, at 10 µM; stronger effect = higher value
Among all 310,000 compounds or so, about 3,900 (1.3%) were called active. Shown is part of a subset that was picked to be rich in actives.
outcome measure: B-score

# count of solved cases: 4
> print(dat)
                                   molecule                         target.under.test  outcome.measure    result
1  CC(NC(=O)Cn1cc(C(F)(F)F)cc(Cl)c1=O)c1ccccc1 (stereo unspecified)  Potassium voltage-gated channel subfamily KQT member 1 (Homo sapiens) (UniProt P51787)          B-score  inactive
2  COCCOC1CCN(C(=O)c2ccc(OC)c(OC3CCN(C(C)C)CC3)c2)CC1  Potassium voltage-gated channel subfamily KQT member 1 (Homo sapiens) (UniProt P51787)          B-score  inactive
3  CCOC(=O)c1cnc(-n2nc(C)cc2C)nc1NNc1cc(C)nc(-c2ccccc2)n1  Potassium voltage-gated channel subfamily KQT member 1 (Homo sapiens) (UniProt P51787)          B-score  inactive
4  COc1cc(CC(=O)Nc2nc(-c3ccc(F)c(F)c3)cs2)cc(OC)c1OC  Potassium voltage-gated channel subfamily KQT member 1 (Homo sapiens) (UniProt P51787)          B-score  inactive

Please give B-score, item by item, for the list that follows.
1. CCOc1cccc(=O)c2c(C)n(CC3CCCO3)c(C)c12 (stereo unspecified)
2. CC1CCCC(N2CCN(C(=O)c3ccc(F)cc3)CC2)C1 (stereo unspecified)
3. CCOc1cc(CN2CCCC(CO)(Cc3ccc(F)cc3F)C2)ccc1OC (stereo unspecified)
4. COc1ccc(CC(=O)Nc2nc(-c3ccc(F)c(F)c3)cs2)cc1OC
5. O=C1c2cccc3c([N+](=O)[O-])ccc(c23)C(=O)N1CC1CCCO1 (stereo unspecified)

Solution:
1: inactive; 2: inactive; 3: inactive; 4: 9 (active); 5: 6 (active)

Items follow; give B-score for each.
1. CN(C(=O)c1ccccc1)c1nccnc1C#N
2. Cc1ccc(S(=O)(=O)NC(=O)Nc2nc(-c3ccc(F)c(F)c3)cs2)cc1

Solution:
inactive
inactive
